Cited source for all entries: PubChem BioAssay

composite z-score values, listed per item
target: Dihydroorotate dehydrogenase (quinone), mitochondrial (Plasmodium falciparum (isolate 3D7)); test: inhibition of P. falciparum DHODH – biochemical, C-terminal His tag, absorbance 600 nm, primary screen (AID 1175); details: PfDHODH enzyme, DCIP absorbance 600 nm; higher = more signal, called active from +8 up or from −8 down;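 also: recombinant parasite enzyme with a five histidine tag at its C terminus; test concentration not given here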
Active and inactive are the calls of the source.

Past entries and their recorded results:
# COMPOUND, READING
measured = [
    ("O=C(CS)NCCCCCNC(=O)[C@@H]1C[C@@H]2C(=O)NCC(=O)N2[C@@H]1c1ccc(O)cc1", "0.424 (inactive)"),
    ("CS(=O)(=O)CCOC(=O)C1=CC(CCCO)=CC(C2CC2)N(Cc2cc3c(cc2Br)OCO3)C=C1C(=O)OCCS(C)(=O)=O (stereo not given)", "-1.5 (inactive)"),
    ("CCCC=C(CCC)[C@@H](NS(=O)(=O)c1ccc(Cl)cc1)c1ccc(C(=O)OC)cc1", "-0.336 (inactive)"),
    ("OCC1C=C(/C=C/c2ccccc2)CN1Cc1ccccc1Br (stereo not given)", "-0.0313 (inactive)"),
    ("COC(=O)[C@@]1(Cc2ccc(OC)cc2)[C@H]2c3cc(C(=O)N4CCCC4)n(Cc4nc5ccccc5[nH]4)c3C[C@H]2CN1C(=O)c1ccccc1", "0.98 (inactive)"),
]

What composite z-score value was documented for this compound, `[N-]=[N+]=Nc1ccccc1C[C@]1(C(=O)NCc2ccccc2)N=C(c2ccc(OCCCO)cc2)O[C@H]1c1ccccc1N=[N+]=[N-]` ?
0.535 (inactive)

What composite z-score value was documented for this compound, CC1CC/C=C\[C@H]2OC34C=CCN(Cn5nnc6ccccc65)C(=O)[C@H]3N(CCCCCO)C(=O)[C@@H]4C2C(=O)O1 (stereo not given in full) ?
0.374 (inactive)

What composite z-score value was documented for this compound, CC(C)=CCCC(C)=CC(O)C1C=CC2C(=O)N(c3ccccc3)C(=O)C2N1Nc1ccc(C(C)C)cc1 (stereo not given) ?
0.484 (inactive)

What composite z-score value was documented for this compound, `CCOC(=O)C1=CC[C@@H](c2ccc(C(F)(F)F)cc2)N(S(=O)(=O)c2ccc(C)cc2)[C@H]1c1ccccc1` ?
-0.296 (inactive)

What composite z-score value was documented for this compound, `O=C(CS)NCCCCCNC(=O)[C@@H]1C[C@@H]2C(=O)NCC(=O)N2[C@@H]1c1cccc(OCCO)c1` ?
-0.61 (inactive)

What composite z-score value was documented for this compound, CC(=O)n1cc(C(O)C2C=CC3C(=O)NC(=O)C3N2Nc2ccccn2)c2ccccc21 (stereo not given) ?
0.496 (inactive)

What composite z-score value was documented for this compound, `COc1ccc(C(=O)Nc2cccc(CN3C(=O)[C@]4(O[C@H](CCn5cc(CCO)nn5)[C@@H]([Si](C)(C)c5ccc(OC)cc5)[C@@H]4C)c4ccccc43)c2)cc1` ?
2.2 (inactive)

What composite z-score value was documented for this compound, `CC(C)[Si](C#C[Si](C(C)C)(C(C)C)C(C)C)(O[C@H](C)c1cn(Cc2ccccc2)nn1)C(C)C` ?
-0.348 (inactive)

What composite z-score value was documented for this compound, `COC(=O)[C@@]1(Cc2ccc(OC)cc2)[C@H]2c3cc(C(=O)N4CCCC4)n(CCc4ccc(O)c(O)c4)c3C[C@H]2CN1C(=O)c1ccccc1` ?
-0.487 (inactive)

What composite z-score value was documented for this compound, `COc1ccc([Si](C)(C)[C@@H]2[C@@H](CCO)O[C@]3(C(=O)N(Cc4cccc(N5CCOC5=O)c4)c4ccccc43)[C@H]2C)cc1` ?
-0.346 (inactive)

What composite z-score value was documented for this compound, `CCOC(=O)C1=CC[C@H]2C(=O)N(c3ccccc3)C(=O)[C@@H]12` ?
0.494 (inactive)

What composite z-score value was documented for this compound, O=C1C2C=CC(C(O)c3cc(C(F)(F)F)cc(C(F)(F)F)c3)N(Nc3ccccc3)C2C(=O)N1c1ccccc1 (stereo not given) ?
0.399 (inactive)

What composite z-score value was documented for this compound, CCCCN1CC=CC23O[C@@H]4C=CCCOC(=O)C4[C@H]2C(=O)N(CCCCCO)[C@@H]3C1=O (stereo not given in full) ?
0.0416 (inactive)

What composite z-score value was documented for this compound, `COCCCNC(=O)[C@@]1(Cc2ccccc2)N=C(c2ccc(OCCCO)cc2)O[C@H]1c1ccccc1CN=[N+]=[N-]` ?
-0.453 (inactive)

What composite z-score value was documented for this compound, O=C1OCCC=C[C@H]2OC34C=CCN(CCN5CCOCC5)C(=O)[C@H]3N(CCCCCO)C(=O)[C@@H]4C12 (stereo not given in full) ?
0.233 (inactive)

What composite z-score value was documented for this compound, `CC(C)(C)OC(=O)CC[C@@]1(C(=O)N2CCCCC2)N=C(c2ccc(OCCCO)cc2)O[C@@H]1c1ccccc1` ?
-0.159 (inactive)

What composite z-score value was documented for this compound, O=C1OCCC/C=C\[C@H]2OC34C=CCN(c5ccc6ccccc6c5)C(=O)[C@H]3N(CCCCCO)C(=O)[C@@H]4C12 (stereo not given in full) ?
-0.338 (inactive)
